Read-out: adenosine kinase (ADK) gene, ADK (gene 132)
Assay: LTEA_HepaRG_ADK: Life Technologies and Expression Analysis (LTEA) Assay for adenosine kinase (ADK) gene using HepaRG (AID 2283471)
Details: mRNA level, 48 h; actives raise or lower the signal
Experimental: LTEA_HepaRG is a cell based, multiplexed-readout assay that uses HepaRG, a human liver cell line, with measurements taken at 48 hours after chemical dosing on a 96-well plate.LTEA_HepaRG_ADK is one of 102 assay component(s) measured in the LTEA HepaRG cell culture assay. It is a marker of Steatosis.Data from the assay component LTEA_HepaRG_ADK was analyzed into 1 endpoint. […]
The source made the active and inactive calls. The calls were made as follows: active = hit-call score of the fitted dose curve at least 0.9, where 1 is the maximum; inactive = score below 0.9.
endpoint.name: outcome

Known results for compounds:
compound.smiles	outcome
Oc1ccc2ccccc2c1	inactive
CO[C@H]1/C=C/O[C@@]2(C)Oc3c(C)c(O)c4c(O)c(c(/C=N/N5CCN(C)CC5)c(O)c4c3C2=O)NC(=O)/C(C)=C\C=C\[C@H](C)[C@H](O)[C@@H](C)[C@@H](O)[C@@H](C)[C@H](OC(C)=O)[C@@H]1C	inactive
c1ccc2n[nH]nc2c1	inactive
CCCCCCCCOC(=O)c1cc(O)c(O)c(O)c1	inactive
OCCO	inactive
Cc1ccc(C(C)C)cc1	inactive
CCCCOC(=O)c1ccc(O)cc1	inactive
CCCCCCCC[Si](OCC)(OCC)OCC	inactive
CCCCCc1ccc(N)cc1	inactive
CCCOC(=O)c1cc(O)c(O)c(O)c1	inactive

Count: 3. Required value per item: outcome.
1. CN(C)C(=O)C1(N2CCCCC2)CCN(CC[C@@]2(c3ccc(Cl)c(Cl)c3)CN(C(=O)c3ccccc3)CCO2)CC1
2. CCCCCCCCCCCO
3. O=CCCCC=O

inactive
inactive
inactive
